These entries and their values trace back to patent US20230322767A1.

# experimental_target: CSNK1D (Homo sapiens (Human), UniProt P48730)
# Sequence (P48730 whole entry): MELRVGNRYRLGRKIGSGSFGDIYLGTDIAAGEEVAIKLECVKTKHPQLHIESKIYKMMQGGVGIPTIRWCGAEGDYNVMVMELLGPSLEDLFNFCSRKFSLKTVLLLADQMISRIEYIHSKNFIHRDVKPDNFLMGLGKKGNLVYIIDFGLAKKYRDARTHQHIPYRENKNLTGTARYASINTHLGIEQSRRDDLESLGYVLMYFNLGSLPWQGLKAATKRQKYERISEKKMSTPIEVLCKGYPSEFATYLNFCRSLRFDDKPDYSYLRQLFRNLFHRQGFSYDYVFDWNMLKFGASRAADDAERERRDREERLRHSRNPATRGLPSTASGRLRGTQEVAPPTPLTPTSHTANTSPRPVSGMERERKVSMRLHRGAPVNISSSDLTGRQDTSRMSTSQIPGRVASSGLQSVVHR
# strict inequality: IC50 < 7 nM yields yes, everything else yields no

Use the examples below as a reference point.
compound: CC(C(=O)Nc1cc(-c2[nH]c3ccn(C)c(=O)c3c2-c2cc(F)ccc2F)ccn1)c1ccc(F)cc1 (racemic)
label: no

compound: O=C(Nc1cc(-c2[nH]c3ccn(C4CC4)c(=O)c3c2-c2ccccn2)ccn1)C(CC(F)F)c1ccc(F)cc1 (racemic)
label: no

compound: CC1(C)Cc2[nH]c(-c3ccnc(NC(=O)Cc4ccc(F)cc4)c3)c(-c3ccc(Cl)cc3)c2C(=O)N1
label: yes

compound: Cn1cc(CC(F)(F)F)c2[nH]c(-c3ccnc(NC(=O)C(CC(F)F)c4ccc(F)cc4)c3)c(-c3ccc(F)cc3)c2c1=O (single isomer, unassigned) [Example 27]
label: yes

compound: CC1c2[nH]c(-c3ccnc(NC(=O)C(CC(F)F)c4ccc(F)cc4)c3)c(-c3ccccc3)c2C(=O)N(C)C1C (stereo not shown)
label: yes

compound: CC(C(=O)Nc1cc(-c2[nH]c3c(c2-c2ccc(F)cc2F)C(=O)N(C)CC3)ccn1)c1ccc(F)cc1 (single isomer, unassigned) [Example 71]
label: yes

compound: CC(C(=O)Nc1cc(-c2[nH]c3c(c2-c2ccc(F)cc2)C(=O)N(C)CC3CC(F)(F)F)ccn1)c1ccc(F)cc1 (stereo not shown)
label: yes

compound: CN1CCc2[nH]c(-c3ccnc(NC(=O)C(CC(F)F)c4ccc(F)cc4)c3)c(-c3cscn3)c2C1=O (racemic)
label: no

Query: Please state whether IC50 is below 7 nM for COCCNC(=O)c1ccc(CC(=O)Nc2cc(-c3[nH]c4c(c3-c3ccc(F)cc3)C(=O)N(C)CC4)ccn2)cc1
Reply: yes

Query: Please state whether IC50 is below 7 nM for CC(C(=O)Nc1cc(-c2[nH]c3c(CC4CC4)cn(C)c(=O)c3c2-c2ccc(F)cc2)ccn1)c1ccc(F)cc1 (racemic)
Reply: no

Query: Please state whether IC50 is below 7 nM for Cc1cn(C)c(=O)c2c(-c3ccc(F)cc3)c(-c3ccnc(NC(=O)C(C)c4ccc(F)cc4)c3)[nH]c12 (racemic) [Example 30]
Reply: yes

---

Provide the reported pIC50 of each item.
# experimental_target: UniProt:P48729
# Sequence (P48729 whole entry): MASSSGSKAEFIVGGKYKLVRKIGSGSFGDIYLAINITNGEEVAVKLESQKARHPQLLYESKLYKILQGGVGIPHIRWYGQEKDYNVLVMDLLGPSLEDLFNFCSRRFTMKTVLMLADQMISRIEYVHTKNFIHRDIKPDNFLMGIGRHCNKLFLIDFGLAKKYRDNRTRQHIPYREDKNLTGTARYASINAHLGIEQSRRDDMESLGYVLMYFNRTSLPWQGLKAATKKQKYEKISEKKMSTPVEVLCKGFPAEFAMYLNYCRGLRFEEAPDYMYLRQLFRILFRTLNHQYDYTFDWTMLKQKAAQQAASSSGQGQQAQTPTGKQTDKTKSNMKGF
One number for each entry, as −log10 of the molar value.

Examples with answers:
molecule: CN1CCc2[nH]c(-c3ccnc(NC(=O)C(CC(F)F)c4ccc(F)cc4)c3)c(-c3cccnc3)c2C1=O (racemic) [Example 9]
assay_endpoint: pIC50
quantitative_result: 8.11
//
molecule: CN1CC(CC2CC2)c2[nH]c(-c3ccnc(NC(=O)C(CC(F)F)c4ccc(F)cc4)c3)c(-c3ccccc3)c2C1=O (stereo not drawn)
assay_endpoint: pIC50
quantitative_result: 8.31
//
molecule: CC1CN(C)C(=O)c2c1[nH]c(-c1ccnc(NC(=O)C(C)c3ccc(F)cc3)c1)c2-c1ccc(F)cc1 (stereo not drawn)
assay_endpoint: pIC50
quantitative_result: 8.54
//
molecule: Cn1cc(CC(F)(F)F)c2[nH]c(-c3ccnc(NC(=O)C(CC(F)F)c4ccc(F)cc4)c3)c(-c3ccc(F)cc3)c2c1=O (single isomer, unassigned) [Example 28]
assay_endpoint: pIC50
quantitative_result: 8.21

List reported pIC50 for each of these molecules:
1. Cc1cn(C)c(=O)c2c(-c3ccc(F)cc3)c(-c3ccnc(NC(=O)C(C)c4ccc(F)cc4)c3)[nH]c12 (racemic) [Example 30]
2. CN1C(=O)c2c([nH]c(-c3ccnc(NC(=O)C(CC(F)F)c4ccc(F)cc4)c3)c2-c2ccccc2)CC12CC2 (racemic)

Reply:
8.24
8.33
